Assignment: determine reported activity change, negative = inhibition for the given molecules.
- measurement protocol: AP1 Signaling Pathway (AID 357);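 note: ME-180 reporter cells stimulated with EGF at its EC50 level; % is set by controls: 0 for no effect and ±100 for the full control effect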
- recorded conditions: ME-180 AP-1-bla reporter, EGF-induced, beta-lactamase ratio, 5 h; at 7.69 µM (top of the series) unless noted
Records with an inconclusive call do not appear. Active and inactive are the calls of the source. Calls come from the whole dose curve; as a rule, active = well fitted curve in either direction with a large enough effect (not every such curve was filed as active); inconclusive = small, poorly fitted or top-dose-only effect, or another doubt; inactive = flat fitted curve, though single readings scatter.

I'd like to know its activity change, negative = inhibition. The molecule in question is "O=[N+]([O-])c1ccc(Nc2nc3ccccc3s2)cc1"
18.2% (inactive)

Same read-out for "OCCCNc1ncnc2[nH]ncc12" ?
7.33% (inactive)

# iterate: "O=C(O)[C@@H](O)Cc1ccccn1"
4.97% (inactive)

Now this one: "O=[N+]([O-])c1ccc2c(c1)c(S(=O)(=O)O)cc1nonc12"
-3.17% (inactive)

Also need "NC(=O)[C@@H]1CCCNC1" , thanks.
9.79% (inactive)

What would you report for "Cn1c(=S)c2[nH]c(SCc3cccnc3)nc2n(C)c1=O" ?
-21.1% (inactive)

Again, but for "ClC(Cl)(Cl)C(N1CCN(c2ccccc2)CC1)N1CCN(c2ccccc2)CC1"
-0.388% (inactive)

Next molecule up: "CN1CCc2c(cc(O)c(O)c2Cl)[C@H](c2cccc(Cl)c2)C1"
26% [at 38 µM] (inactive)

Next record, please: "O=C1NC(=O)[C@@](Cc2ccccc2)(c2cccnc2)N1"
-12.7% (inactive)

Same thing, different molecule: "O=[N+]([O-])/C=C\c1cc2ccccc2[nH]1"
-11.8% (inactive)

Ok, now "Cc1cccc(CNc2ncnc3[nH]ncc23)c1"
-1.11% (inactive)

# iterate: "Cc1ccc2nc(-c3ccc(NC(=O)c4ccc(N)cc4)c(S(=O)(=O)O)c3)sc2c1"
-3.73% (inactive)

Try "CC(C)c1cc(C(F)(F)F)nc(NNc2nc(C(C)C)cc(C(F)(F)F)n2)n1" next.
-11.8% (inactive)

Proceed to "CC(C)=CCNc1ncnc2c1c(C#N)cn2[C@H]1O[C@@H](CO)[C@@H](O)[C@@H]1O"
-1.6% (inactive)

Now consider "CN(C)c1ccc(N=Nc2cccc3ccoc23)cc1" and answer again.
1.15% (inactive)

Next up: "CC(C)CCC[C@@H](C)[C@@H]1CC[C@@H]2[C@H]3CC[C@H]4C[C@@H](N)CC[C@@]4(C)[C@@H]3CC[C@]21C"
13.1% (inactive)

Repeat with "Nc1nc(SCc2ccccc2Cl)cc(C(=O)O)n1"
-13.8% (inactive)

Subsequent entry: "O=C(c1cc(Br)ccc1O)c1cc(Br)ccc1O"
-21.4% (inactive)

Same read-out for "O=C(O)/C=C(/C(=O)O)[C@]12CCN3CC4=CCO[C@@H]5CC(=O)N[C@@H]1[C@H]5[C@H]4C[C@H]32" ?
9.14% (inactive)

Next: "CC(C)C(=O)C(C)(C)CCc1ccccn1"
27.3% (inactive)

How about "Cc1cc(Cc2c(C)c(C)c(Cc3cc(C)cc(C(C)(C)C)c3O)c(C)c2C)c(O)c(C(C)(C)C)c1" ?
-8.57% (inactive)

And "Cc1ccccc1C(=N)c1ccccc1Cc1cccc2ccccc12" ?
5.2% (inactive)

Consider next the molecule "Cc1cc2c(=O)[nH]c(N)nc2nc1C" in the same way.
1.82% (inactive)

====

- measurement protocol: Stat Signaling Pathway (AID 446);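 note: ME-180 cervical cancer cells given 40 pM IL-6 alongside compound; SIE-controlled beta-lactamase reporter measured as 460/530 nm FRET emission ratio; % is set by controls: 0 for no effect and ±100 for the full control effect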
- recorded conditions: ME-180 (cervical carcinoma) SIE beta-lactamase reporter, IL-6 stimulated, 5 h; at 7.69 µM (top of the series) unless noted
Records with an inconclusive call do not appear. The source made the active and inactive calls. Calls follow the shape of the dose curve; as a rule, active = well fitted curve in either direction with a large enough effect (not every such curve was filed as active); inconclusive = small, poorly fitted or top-dose-only effect, or another doubt; inactive = flat fitted curve, though single readings scatter.
assay metric: activity, negative = inhibition

Fill in: activity, negative = inhibition of "CN1CCCC[C@@H]1CCN1CCCCC1" is ___
3.65% (inactive)

Now give it for "COc1ccc(C[N+](C)(C)N)cc1OC" too.
7.15% (inactive)

Next compound: C[C@H]1CCCC2(CC[N+](C)(CCC[N+](C)(C)C)CC2)C1 (stereo partly specified)
1.53% (inactive)

Again, but for "Cn1c(=O)c2[nH]c(SCCN3CCOCC3)nc2n(C)c1=S"
1.45% (inactive)

Also, "Cc1cc(Cc2cc(C)cc(C(C)(C)C)c2O)c(O)c(Cc2cc(C)cc(C(C)(C)C)c2O)c1" please.
6.72% (inactive)

Now the same for "O=C1C=C(Nc2nc(C(=O)O)cc(=O)[nH]2)c2ccccc2C1=O"
1.38% (inactive)

What about this compound? "Nc1ccccc1SCc1csc(-c2ccc(Cl)cc2)n1"
-11.2% (inactive)

Proceed to "O[C@H]([C@H](O)[C@@H](O)c1nc2ccccc2[nH]1)[C@@H](O)c1nc2ccccc2[nH]1"
6.86% (inactive)

Next entry: "Cc1cc(N=Cc2c(CO)cnc(C)c2O)c(N=Cc2c(CO)cnc(C)c2O)cc1C.[Zn]"
7.49% (inactive)

Repeat with "CCOc1ccc(N=NS(=O)(=O)O)cc1"
8.88% (inactive)

Quick one: "Cc1ccc(CSC(N)=Nc2ccccc2)cc1C"
-10.5% (inactive)

Further, for "CN(C)C(=O)c1ccc(-c2nc(Nc3ccncc3)c3ccccc3n2)cc1" ?
-6.09% (inactive)

And then "CC(C)(C)n1nc(C2CC2)cc1NC(=O)Nc1ccc(Cl)cc1" , what is it?
-5.8% (inactive)

Same question for "N[C@@H](C(=O)O)[C@@H]1C[C@H]1C(=O)O" please.
16.9% [at 38 µM] (inactive)

Next record, please: "O=C(O)[C@H](CCc1ccccn1)c1ccccc1"
0.534% (inactive)

Same for "NCCNCC1CCNCC1"
3.5% (inactive)

Consider next the compound "O=C(O)CC1(CC(=O)O)Nc2ccccc2SC1=O" in the same way.
2.07% (inactive)

Item: "C[N+]1(CCCC[N+]2(C)CCCCCCC2)CCCCCCC1"
-6.69% (inactive)

Another: "FC(F)(F)c1nc2nc(Cl)c(Cl)nc2n1CCCN1CCOCC1"
2.08% (inactive)

Then this compound: "Cc1c(N2CCCC2)cc2c(c1NC(=O)c1ccccc1Cl)C(C)(C)CC2(C)C"
-9.5% (inactive)

Follow-up item: "O=C1Oc2ccccc2C(=O)/C1=C\N1C(=O)N/C(=C\c2ccccc2O)C1=O"
-25.4% (inactive)

Same for "O=C(O)[C@@H](O)[C@@H](O)[C@H](O)[C@H](O)CO"
-3.53% (inactive)

Could you do the same for "c1ccc(CN2COc3c(ccc4c5c(ccc34)CN(Cc3ccccc3)CO5)C2)cc1" , please?
8.56% (inactive)

Quick one: "NC(=O)NOC[C@@H]1NC(=O)NC1=O"
9.07% (inactive)

Also need "O=C(O)CC[C@@H](NC(=O)c1ccccc1C(=O)O)C(=O)O" , thanks.
-11.8% [at 38 µM] (inactive)

Try "CC(=O)OCC(=O)[C@]12OC(C)(C)O[C@@H]1C[C@H]1[C@H]3CC=C4C[C@@H](O)CC[C@]4(C)[C@H]3CC[C@]12C" next.
5.43% (inactive)

Repeat for the following compound: "Nc1nc(N)c2nn(-c3ccc(C(=O)O)cc3)nc2n1"
-0.747% (inactive)

Do the same for "CCC(=O)Nc1ncnc2ncn(C(=O)CC)c12" please
1.38% (inactive)

Cool, now "Cc1cc(C)nc(SCCc2cccc[n+]2C)n1"
6.72% (inactive)

And then "O=C(O)C(Cc1ccccc1)Cc1ccccc1" , what is it?
-8.39% (inactive)

What do you have for "O=C(c1[nH]o[n+](=O)c1C(=O)c1csc2ccccc12)c1csc2ccccc12" ?
-7.78% (inactive)

Next up: "CC(C)(CC(=O)Nc1ccccc1)C(=O)O"
2.37% (inactive)

Entry "Cc1cc(Cc2cc(C)c(N)cc2N)c(N)cc1N" please
1.49% (inactive)

Now give it for "N=C(c1ccc2ccccc2c1)c1ccccc1Cc1ccccc1" too.
-1.68% (inactive)

Input "CN1CCN(CC(=O)N2c3ccccc3Sc3cc4ccccc4cc32)CC1"
-5.37% (inactive)

Now the same for "CC1=N[C@@](C)(COC(=O)[C@]2(C)N[C@](C)(CO)CO2)COC1=O"
6.3% (inactive)

Moving on to "COc1cc2c3cc1Oc1cc(ccc1O)C[C@@H]1c4c(cc(OC)c(O)c4Oc4ccc(cc4)C[C@H]3[N+](C)(C)CC2)CC[N+]1(C)C"
21.4% (inactive)

Next: "CCOC(=O)[C@]1(CC(=O)O)CCCC1=O"
-19.1% (inactive)

Another: "O=C(c1cc(C(F)(F)F)cc(C(F)(F)F)c1)N1CCC[C@@]2(CCN(Cc3ccccc3)C2)C1"
7.65% (inactive)

// next record "N#CC(C#N)=NNc1ccc2cn[nH]c2c1"
-12% (inactive)

Next compound: "Cc1ccc(C2=Nc3ccccc3S[C@@H](c3cccc([N+](=O)[O-])c3)C2)cc1"
-8.15% (inactive)

How about "CSc1ncnc2c1ncn2[C@@H]1O[C@@H](CO)[C@H](O)O[C@@H]1O" ?
22.9% (inactive)

Do the same for "CC(=NCC(=O)O)c1ccccc1" please
1.76% (inactive)

Same question, "O=c1cnc2cnc(N3CCNCC3)nc2n1CCc1ccccc1" this time
-12.8% (inactive)

What about this compound? "O=C1OC(=O)[C@@H]2[C@@H]1[C@@H]1CC[C@H]2O1"
-11.3% [at 38 µM] (inactive)

Here is the next compound: "O=C1c2ccccc2C(=O)c2c(NC3CCCCC3)ccc(Nc3ccc(S(=O)(=O)O)cc3)c21"
-10.9% (inactive)
